Please go through the items and note down their cell viability.
- Test system: NHEM-hTERT
- PROTOCOL_DESCRIPTION: cell viability relative to DMSO control (fraction of DMSO control); higher = less cytotoxic, active = 0.5 or less
- MEASUREMENT_SETUP: 1 µM; 120 h
One number for each entry.

COc1ccc(-c2cc(=S)ss2)cc1: 1.05
O=c1[nH]c(=O)n([C@H]2C[C@H](O)[C@@H](CO)O2)cc1/C=C/Br: 1.08
C[C@@H](CN1CC(=O)NC(=O)C1)N1CC(=O)NC(=O)C1.Cl [Dexrazoxane HCl]: 1.2

// for each molecule in input: emit cell viability
1. O=C(/C=C/c1ccc(O)cc1)c1ccc(O)cc1O
2. COC(=O)c1cc(OC)c2c(c1-c1c(CO)cc(OC)c3c1OCO3)OCO2
3. O=C(NC(Cc1cc(=O)[nH]c2ccccc12)C(=O)O)c1ccc(Cl)cc1 (stereo not drawn) [Rebamipide]
4. Cl.Cl.Cl.Cl.Cl.Cl.Cl.Cl.c1cc(CN2CCCNCCNCCCNCC2)ccc1CN1CCCNCCNCCCNCC1 [AMD 3100 octahydrochloride]
5. CC(C)(C#N)c1cc(Cn2cncn2)cc(C(C)(C)C#N)c1

1: 0.982; 2: 1.12; 3: 1; 4: 1.14; 5: 1.02
